Sourced from patent US8748466B2

Target: Pseudomonas aeruginosa LpxC enzyme (Pseudomonas aeruginosa, UniProt P47205)
Construct: made in house; host or cells: E. coli
Sequence (P47205 1-303): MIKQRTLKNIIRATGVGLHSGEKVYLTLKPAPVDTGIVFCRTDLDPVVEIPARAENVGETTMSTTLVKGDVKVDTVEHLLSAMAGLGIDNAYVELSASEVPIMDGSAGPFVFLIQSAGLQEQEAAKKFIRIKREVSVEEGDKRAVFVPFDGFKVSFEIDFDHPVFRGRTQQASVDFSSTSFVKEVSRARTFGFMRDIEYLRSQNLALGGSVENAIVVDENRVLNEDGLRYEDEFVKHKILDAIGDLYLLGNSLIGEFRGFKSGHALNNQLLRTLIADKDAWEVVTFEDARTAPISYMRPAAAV
Assay: LpxC enzyme IC50 assay (PA LpxC enzyme IC50), BioTrove RapidFire mass spectrometry
Format: biochemical
Conditions: P. aeruginosa LpxC enzyme 0.1 nM, 25° C., 1 hour, pH 8.0; read-out: PA:IC50
pIC50: −log10 of the molar value.
Item-by-item account of pIC50

{"Compound": "CCCCNC(=O)OCc1cc(CCC(C)(C(=O)NO)S(C)(=O)=O)no1 (racemic)", "pIC50": "< 7.00"}
{"Compound": "CC(CCc1cc(CNS(=O)(=O)c2ccc(F)cc2)on1)(C(=O)NO)S(C)(=O)=O (racemic)", "pIC50": "< 7.00"}

Query pIC50 for CCOC(C)(C)c1cc(CCC(C)(C(=O)NO)S(C)(=O)=O)on1 (racemic) < 7.00
